# protocol-text: in vitro
# setup-conditions: PAMPA, Permeability class across the PAMPA membrane

# cpd-smiles, Papp at 6 h, 25 μg/mL
rows = [
    ("Cn1cnc([N+](=O)[O-])c1Sc1ncnc2nc[nH]c12", "< 1 ×10⁻⁶ cm/s"),
]
